- ASSAY NAME: self-splicing fitness, log relative to wild type (ln ratio); higher = more splicing; Tetrahymena group I intron in knt gene, E. coli kanamycin selection, DiMSum; sequences stand for … in CUCUCU…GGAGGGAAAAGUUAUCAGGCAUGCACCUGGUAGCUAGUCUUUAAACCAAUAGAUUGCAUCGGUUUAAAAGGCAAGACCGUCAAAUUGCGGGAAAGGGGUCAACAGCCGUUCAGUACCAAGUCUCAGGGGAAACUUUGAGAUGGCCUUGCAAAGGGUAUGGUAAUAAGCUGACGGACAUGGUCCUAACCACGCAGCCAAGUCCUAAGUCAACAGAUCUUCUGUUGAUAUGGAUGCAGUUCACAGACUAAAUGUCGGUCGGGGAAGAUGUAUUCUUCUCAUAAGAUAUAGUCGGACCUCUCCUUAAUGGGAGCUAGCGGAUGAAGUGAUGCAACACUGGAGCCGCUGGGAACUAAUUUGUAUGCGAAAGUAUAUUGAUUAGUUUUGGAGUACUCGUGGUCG;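 further: selection with 25 µg/mL kanamycin versus none on LB agar overnight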
- CONDITION SET: 37 °C
Use yes (1) when the recorded self-splicing fitness (ln) is no lower than -2; use no (0) when it is lower.

chain_sequence=AGCUAGCAAUAUUACGGUGA assigned_category="yes (1)"
chain_sequence=CUACAGCAAUAUUACGAUCU assigned_category="yes (1)"
chain_sequence=ACGUAGCAAUAUUACGUGGU assigned_category="yes (1)"
chain_sequence=AAAGAGCAAUAUUACGACAG assigned_category="no (0)"
chain_sequence=AAGUAGCAAUAUUACGAUCU assigned_category="yes (1)"
chain_sequence=CGCAAGCAAUAUUACGCGCA assigned_category="yes (1)"
chain_sequence=GCGCAGCAAUAUUACGCGUG assigned_category="yes (1)"
chain_sequence=AGUAAGCAAUAUUACGCAAU assigned_category="yes (1)"
chain_sequence=AGAGAGCAAUAUUACGAAAU assigned_category="yes (1)"
chain_sequence=AGGCAGCAAUAUUACGUCGG assigned_category="yes (1)"
chain_sequence=GAAAAGCAAUAUUACGCUCG assigned_category="yes (1)"
chain_sequence=UACUAGCAAUAUUACGAGGG assigned_category="no (0)"
chain_sequence=GGUAAGCAAUAUUACGAUCU assigned_category="yes (1)"
chain_sequence=CACGAGCAAUAUUACGAGUA assigned_category="no (0)"
chain_sequence=GCUCAGCAAUAUUACGGCCC assigned_category="yes (1)"
chain_sequence=AGCCAGCAAUAUUACGACAU assigned_category="yes (1)"
chain_sequence=ACUAAGCAAUAUUACGGAGG assigned_category="yes (1)"
chain_sequence=UACUAGCAAUAUUACGAGAC assigned_category="yes (1)"
chain_sequence=AAAAAGCAAUAUUACGGAAC assigned_category="yes (1)"
chain_sequence=UGUCAGCAAUAUUACGAGAU assigned_category="no (0)"
chain_sequence=UCCAAGCAAUAUUACGAAAA assigned_category="yes (1)"
chain_sequence=CUUCAGCAAUAUUACGGGCG assigned_category="yes (1)"
chain_sequence=AUCGAGCAAUAUUACGGCUA assigned_category="yes (1)"
chain_sequence=CCGAAGCAAUAUUACGUAAG assigned_category="yes (1)"
chain_sequence=CUCGAGCAAUAUUACGGUAA assigned_category="yes (1)"
chain_sequence=CGCCAGCAAUAUUACGGUGC assigned_category="no (0)"
chain_sequence=CCAAAGCAAUAUUACGUUAG assigned_category="yes (1)"
chain_sequence=CCAAAGCAAUAUUACGCUAA assigned_category="no (0)"
chain_sequence=CACGAGCAAUAUUACGCAAA assigned_category="no (0)"
chain_sequence=AACGAGCAAUAUUACGUCGG assigned_category="yes (1)"
chain_sequence=UCACAGCAAUAUUACGAGCG assigned_category="yes (1)"
chain_sequence=UUUUAGCAAUAUUACGGCUC assigned_category="yes (1)"
chain_sequence=UUUAAGCAAUAUUACGAACG assigned_category="yes (1)"
chain_sequence=CCCCAGCAAUAUUACGAUAG assigned_category="no (0)"
chain_sequence=CGAUAGCAAUAUUACGUCAA assigned_category="no (0)"
chain_sequence=UAUUAGCAAUAUUACGGAGA assigned_category="no (0)"
chain_sequence=GUGAAGCAAUAUUACGAGGG assigned_category="yes (1)"
chain_sequence=GACAAGCAAUAUUACGAUCC assigned_category="no (0)"
chain_sequence=AGGGAGCAAUAUUACGUCCU assigned_category="yes (1)"
chain_sequence=GCUUAGCAAUAUUACGUGAG assigned_category="yes (1)"
chain_sequence=AGGAAGCAAUAUUACGUGCA assigned_category="yes (1)"
chain_sequence=GUAAAGCAAUAUUACGUCAU assigned_category="yes (1)"
chain_sequence=CACAAGCAAUAUUACGGCCU assigned_category="no (0)"
chain_sequence=ACUAAGCAAUAUUACGGCUG assigned_category="yes (1)"
chain_sequence=AACCAGCAAUAUUACGUCGU assigned_category="yes (1)"
chain_sequence=UCACAGCAAUAUUACGGAUG assigned_category="yes (1)"
chain_sequence=AUAAAGCAAUAUUACGGACU assigned_category="yes (1)"
chain_sequence=AGGCAGCAAUAUUACGAAUA assigned_category="no (0)"
chain_sequence=ACUCAGCAAUAUUACGCAGU assigned_category="no (0)"
chain_sequence=AUGCAGCAAUAUUACGCUAG assigned_category="no (0)"
chain_sequence=CUUUAGCAAUAUUACGCGUC assigned_category="no (0)"
chain_sequence=UUAUAGCAAUAUUACGCAUU assigned_category="no (0)"
chain_sequence=CAGGAGCAAUAUUACGAUCA assigned_category="no (0)"
chain_sequence=GCUCAGCAAUAUUACGCCAU assigned_category="no (0)"
